The reported measurements were obtained from PubChem BioAssay AID236.

Tested on: AK4 lymphoid leukemia ip, C3AKF1 mice, survival
method.summary: NCI In Vivo Anticancer Drug Screen. Data for tumor model AK4 Lymphoid Leukemia (intraperitoneal) in C3AKF1 (CHKRF1) mice
details: endpoint: median survival time; dose: 20.0 mg/kg/injection; schedule: Q01DX010 (ip); vehicle: saline
Inconclusive results and toxic doses are left out. The calls were made as follows: active = survival T/C of 150% or more; inactive = T/C below 125% in these data.
Outcomes: YES (active), NO (inactive)

compound	category.label
S=P(N1CCOCC1)(N1CC1)N1CC1	NO
CN(C)c1ccc(/C=C/c2ccnc3ccccc23)cc1	NO
O=c1[nH]cc(F)c(=O)[nH]1	YES
CN(N=O)C(N)=O	YES
NC(Cc1ccc(N(CCCl)CCCl)cc1)C(=O)O (configuration not stated)	NO
CC[n+]1c(-c2ccccc2)c2cc(N)ccc2c2ccc(N)cc21	NO
O=C(O)c1[nH]c(=O)[nH]c(=O)c1F	NO

====

Test system: AK4 lymphoid leukemia ip, C3AKF1 mice, survival
method.summary: NCI In Vivo Anticancer Drug Screen. Data for tumor model AK4 Lymphoid Leukemia (intraperitoneal) in C3AKF1 (CHKRF1) mice
details: endpoint: median survival time; dose: 100.0 mg/kg/injection; schedule: Q01DX010 (ip); vehicle: saline
Inconclusive results and toxic doses are left out. Rule for the calls: active = survival T/C of 150% or more; inactive = T/C below 125% in these data.
Outcomes: yes (active), no (inactive)

smi	category.label
CSc1ncnc2nc[nH]c12	no
CS(=O)(=O)OCCC(=O)N1CCN(C(=O)CCOS(C)(=O)=O)CC1	no
CC(=O)Nc1ccc2nc3ccc(NC(C)=O)cc3[n+](-c3ccccc3)c2c1	no
COc1cc(-c2ccc(Nc3ccccc3C(=O)O)c(OC)c2)ccc1Nc1ccccc1C(=O)O	yes
C#CCN(C)Cc1ccccc1	no
O=[n+]1c2c(n([O-])c3ccccc31)-c1cccc3cccc-2c13	no
CCN(CC)CCNc1ccc(C)c2sc3ccccc3c(=O)c12	no

====

System: AK4 lymphoid leukemia ip, C3AKF1 mice, survival
method.summary: NCI In Vivo Anticancer Drug Screen. Data for tumor model AK4 Lymphoid Leukemia (intraperitoneal) in C3AKF1 (CHKRF1) mice
details: endpoint: median survival time; dose: 62.5 mg/kg/injection; schedule: Q01DX010 (ip); vehicle: saline; higher = longer survival
Inconclusive results and toxic doses are left out.
experimental.readout: T/C

smi	experimental.readout	result
CCn1cnc2c(=S)nc[nH]c21	T/C	88 % of control
c1ccc(CCSc2ncnc3nc[nH]c23)cc1	T/C	100 % of control
COc1ccc2c(c1OC)C(=O)O[C@@H]2[C@H]1c2c(cc3c(c2OC)OCO3)CCN1C	T/C	94 % of control
O=CN(O)CC(=O)O	T/C	100 % of control

====

Test system: AK4 lymphoid leukemia ip, C3AKF1 mice, survival
method.summary: NCI In Vivo Anticancer Drug Screen. Data for tumor model AK4 Lymphoid Leukemia (intraperitoneal) in C3AKF1 (CHKRF1) mice
details: endpoint: median survival time; dose: 200.0 mg/kg/injection; schedule: Q01DX010 (ip); vehicle: saline; higher = longer survival
Toxic doses and inconclusive results are not listed.
// T/C lookup, one value per entry
experimental.readout: T/C

compound	result
CN(C)CC(=O)c1ccc(O)c(O)c1	112 % of control
C#CCN(C)Cc1ccccc1	88 % of control
CSc1ncnc2nc[nH]c12	100 % of control
CS(=O)(=O)OCC(O)C(O)C(O)C(O)COS(C)(=O)=O (stereo unspecified)	100 % of control
Cc1cc2nc3c(=O)[nH]c(=O)nc-3n(CC(O)C(O)C(O)C(O)CO)c2cc1C (stereo unspecified)	88 % of control
CC(=O)Nc1ccc2nc3ccc(NC(C)=O)cc3[n+](-c3ccccc3)c2c1	117 % of control

====

Tested on: AK4 lymphoid leukemia ip, C3AKF1 mice, survival
method.summary: NCI In Vivo Anticancer Drug Screen. Data for tumor model AK4 Lymphoid Leukemia (intraperitoneal) in C3AKF1 (CHKRF1) mice
details: endpoint: median survival time; dose: 25.0 mg/kg/injection; schedule: Q01DX010 (ip); vehicle: saline; higher = longer survival
Toxic doses and inconclusive results are not listed.
experimental.readout: T/C

smi	experimental.readout	result
CS(=O)(=O)OCCC(=O)N1CCN(C(=O)CCOS(C)(=O)=O)CC1	T/C	116 % of control
CCN(CC)CCNc1ccc(C)c2sc3ccccc3c(=O)c12	T/C	122 % of control
O=c1c(O)cccc2cc(O)c(O)c(O)c12	T/C	94 % of control
CSc1ncnc2nc[nH]c12	T/C	100 % of control
CS(=O)(=O)OCCCCOS(C)(=O)=O	T/C	100 % of control
O=C1C(NC(=O)C2CCCCC2)=C(N2CC2)C(=O)C(NC(=O)C2CCCCC2)=C1N1CC1	T/C	90 % of control
COS(C)(=O)=O	T/C	100 % of control

====

Tested on: AK4 lymphoid leukemia ip, C3AKF1 mice, survival
method.summary: NCI In Vivo Anticancer Drug Screen. Data for tumor model AK4 Lymphoid Leukemia (intraperitoneal) in C3AKF1 (CHKRF1) mice
details: endpoint: median survival time; dose: 16.0 mg/kg/injection; schedule: Q01DX010 (ip); vehicle: saline; higher = longer survival
Toxic doses and inconclusive results are not listed.
// T/C lookup, one value per entry
experimental.readout: T/C

molecule	result
CCCCn1cnc2c(=S)nc[nH]c21	100 % of control
O=C(Nc1ccc(NC2=NCCN2)cc1)c1ccc(C(=O)Nc2ccc(NC3=NCCN3)cc2)cc1	150 % of control
Nc1nc(=S)c2ncn(C3OC(CO)C(O)C3O)c2[nH]1 (stereo not given)	94 % of control
NC(Cc1ccc(N(CCCl)CCCl)cc1)C(=O)O (stereo not given)	100 % of control
C=CC(CN1CC1)OC(C)=O (stereo not given)	90 % of control

====

Tested on: AK4 lymphoid leukemia ip, C3AKF1 mice, survival
method.summary: NCI In Vivo Anticancer Drug Screen. Data for tumor model AK4 Lymphoid Leukemia (intraperitoneal) in C3AKF1 (CHKRF1) mice
details: endpoint: median survival time; dose: 250.0 micrograms/kg/injection; schedule: Q01DX010 (ip); vehicle: saline
Inconclusive results and toxic doses are left out. The calls were made as follows: active = survival T/C of 150% or more; inactive = T/C below 125% in these data.
Outcomes: active, inactive

molecule	category.label
CSCS(=O)C[C@H](CO)NC(=O)/C=C/c1c(C)[nH]c(=O)[nH]c1=O (stereo not given in full)	inactive
CS(=O)(=O)OCCN(CCOS(C)(=O)=O)c1ccc(N=O)cc1	inactive
N#Cc1cn(C2OC(CO)C(O)C2O)c2ncnc(N)c12 (stereo not given)	inactive
O[C@H](CN1CC1)[C@@H](O)CN1CC1	active
CC(=O)NC1=C(N2CC2)C(=O)C(NC(C)=O)=C(N2CC2)C1=O	inactive

====

// T/C lookup, one value per entry
Test system: AK4 lymphoid leukemia ip, C3AKF1 mice, survival
method.summary: NCI In Vivo Anticancer Drug Screen. Data for tumor model AK4 Lymphoid Leukemia (intraperitoneal) in C3AKF1 (CHKRF1) mice
details: endpoint: median survival time; dose: 1.25 mg/kg/injection; schedule: Q01DX010 (ip); vehicle: saline; higher = longer survival
Toxic doses and inconclusive results are not listed.

smi	T/C
CC[n+]1c(-c2ccccc2)c2cc(N)ccc2c2ccc(N)cc21	100 % of control
N#[N+]c1cnc([O-])[nH]c1=O	100 % of control
O=C(O)c1[nH]c(=O)[nH]c(=O)c1F	105 % of control
NC(=O)c1ccc(NC(=O)CCC(=O)Nc2ccc(C(N)=O)cn2)nc1	110 % of control

====

Tested on: AK4 lymphoid leukemia ip, C3AKF1 mice, survival
method.summary: NCI In Vivo Anticancer Drug Screen. Data for tumor model AK4 Lymphoid Leukemia (intraperitoneal) in C3AKF1 (CHKRF1) mice
details: endpoint: median survival time; dose: 6.25 mg/kg/injection; schedule: Q01DX010 (ip); vehicle: saline; higher = longer survival
Method: The antitumor activity of compounds was measured in mice bearing transplantable tumors. Survival or tumor size were measured and the results are expressed as the measurement made in the treated group (T) divided by the measurement made in the vehicle treated control group (C). The tumor model used in this assay is AK4 Lymphoid Leukemia (intraperitoneal) in C3AKF1 (CHKRF1) mice
Toxic doses and inconclusive results are not listed.
experimental.readout: T/C

compound	result
[I][Hg][CH2]C1COC([CH2][Hg][I])CO1 (centres undefined)	100 % of control
O=[n+]1c2c(n([O-])c3ccccc31)-c1cccc3cccc-2c13	100 % of control
Cc1cc2nc3c(=O)[nH]c(=O)nc-3n(CC(O)C(O)C(O)C(O)CO)c2cc1C (centres undefined)	111 % of control
C[C@H]1C(=O)O[C@@H]2CCN3CC=C(COC(=O)[C@](C)(O)[C@@]1(C)O)[C@H]23	100 % of control
